Origin of the recorded values: patent US20230048888A1

experiment: Solubility in biological vehicles (SGF, FaSSIF, FeSSIF) at 37° C., HPLC; assay type: physicochemical; conditions: fed state simulated intestinal fluid (FeSSIF), 37 °C, fessif, thermodynamic from solid, 2 h
Listed below: solubility at 2 h values for each entry.
Parameter: solubility at 2 h (µg/mL)

compound=Nc1nc(NCCc2ccc(NC3COC3)cc2)nc2nc(-c3ccco3)nn12 parameter="solubility at 2 h" result_units=µg/mL meas_value=8.8
compound="CC(=O)O.Nc1nc(NCCc2ccc(NC3COC3)cc2)nc2nc(-c3ccco3)nn12 [Acetate of Compound 22]" parameter="solubility at 2 h" result_units=µg/mL meas_value=33.8
